- protocol description: Cy5 fluorescence quenching or enhancement artefacts, artefact control for HCV NS3 helicase inhibitor project, biochemical, LOPAC1280 (AID 687037)
- run parameters: Cy5-DNA-NS3h complex fluorescence interference counterscreen
The source made the active and inactive calls. The rule behind the calls is not given here.
Just give me one of these, please: active, inactive

// below: answered compounds
compound | category label
NCCCCNCCCN | inactive
CN(C)c1ccc(/C=C2\C(=O)Nc3ccccc32)cc1 | inactive
N=C(N)SCCN | inactive
CC1CC2C3CCC4=CC(=O)C=C[C@]4(C)[C@@]3(F)[C@@H](O)C[C@]2(C)[C@@]1(O)C(=O)CO (some centres undefined) | inactive
CCCCCCC(=O)OC1CC(C)(C)NC(C)(C)C1 | inactive

Asked: # fetch the recorded call for CNC(=O)c1cc2c(cn1)[nH]c1ccccc12 here
Given back: inactive

Asked: Could you do the same for O=C(O)C1CCCN(CCC=C(c2ccccc2)c2ccccc2)C1 (centres undefined) , please?
Given back: inactive

Asked: Could you do the same for Nc1nc(N)c2nc(CNc3ccc(C(=O)NC(CCC(=O)O)C(=O)O)cc3)cnc2n1 (centres undefined) , please?
Given back: inactive

Data credit: PubChem BioAssay
